Recorded values, source PubChem BioAssay AID652105.

Biological target: Phosphatidylinositol 5-phosphate 4-kinase type-2 alpha (Homo sapiens)
Assay: qHTS for Inhibitors of phosphatidylinositol 5-phosphate 4-kinase (PI5P4K); also: value at the top dose of about 77 µM; % is scaled to controls: 0 for no effect and ±100 for the full control effect
Conditions: PI5P4Kalpha enzyme, ADP-Glo luminescence, 60 min; stronger effect = lower value
Among all 330,000 compounds or so, about 4,100 (1.2%) were called active. Inconclusive results (about 2%) are left out. The entries come from a sample that favours actives as a whole.
Readout Label: max response (%)

1) CSc1ccc(CN2CCC2(C)C(=O)NCc2ccccc2Br)cc1 (stereo unspecified) | 17.1
2) C=CCSc1nc2c(c(=O)[nH]c(=O)n2C)n1Cc1ccccc1 | 7.13
3) Cn1c(=O)[nH]c(=O)c2c1[nH]c(=S)n2Cc1ccccc1 | -85.5
4) CCOC(=O)[C@]12CCCC=C1N(Cc1ccc3c(c1)OCO3)C(=O)[C@H](CC(=O)NCc1cccs1)C2 | 3.13
5) CCOc1cccc(/C=N/NC(=S)NCCN2CCOCC2)c1O | -0.183
6) O=C(CSc1nc2ccccc2c(=O)[nH]1)Nc1nc(-c2ccc(Br)cc2)cs1 | 2.06

====

Listed here are compounds together with their documented max response.
Target: Phosphatidylinositol 5-phosphate 4-kinase type-2 alpha (Homo sapiens) (UniProt P48426)
Sequence (P48426 whole entry, looked up): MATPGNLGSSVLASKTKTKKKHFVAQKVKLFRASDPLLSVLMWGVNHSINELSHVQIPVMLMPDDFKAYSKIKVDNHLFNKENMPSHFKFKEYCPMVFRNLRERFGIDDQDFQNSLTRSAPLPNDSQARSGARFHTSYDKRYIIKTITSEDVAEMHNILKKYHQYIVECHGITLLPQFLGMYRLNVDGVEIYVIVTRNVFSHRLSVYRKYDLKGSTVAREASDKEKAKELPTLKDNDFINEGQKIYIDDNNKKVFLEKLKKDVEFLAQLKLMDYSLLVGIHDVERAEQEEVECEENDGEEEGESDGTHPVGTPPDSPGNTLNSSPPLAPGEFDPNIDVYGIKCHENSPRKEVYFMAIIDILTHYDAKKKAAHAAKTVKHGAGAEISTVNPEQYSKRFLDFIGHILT
Experiment: qHTS for Inhibitors of phosphatidylinositol 5-phosphate 4-kinase (PI5P4K); also: value at the top dose of about 77 µM; % is scaled to controls: 0 for no effect and ±100 for the full control effect
Details: PI5P4Kalpha enzyme, ADP-Glo luminescence, 60 min; stronger effect = lower value
About 4,100 (1.2%) of roughly 330,000 compounds were called active. Not shown: some 2% with an inconclusive outcome. The full list was thinned out, with actives kept by preference.
Readout Label: max response (%)

1. O=C(CSc1nc2c(cnn2-c2ccc(F)cc2)c(=O)[nH]1)N1CCCCCC1 | -3.16
2. COC(=O)c1c(C)c(C)nc(N)c1C#N | 1.33
3. CN1OC[C@@H]2CN(S(=O)(=O)c3cccc4ccccc34)[C@H](c3ccc(N4CCCCC4)cc3)C[C@@H]21 | 7.24
4. COc1ccc(-c2cc3nc(NCCOc4ccccc4)ccn3n2)cc1 | 23.5
5. Cc1ccccc1Nc1nnc(SCC(=O)c2cc3ccccc3o2)s1 | -19.3
6. N#Cc1c(-c2ccccc2)cc(-c2ccccc2)nc1SCC(=O)O | -13.7
7. NC(=O)CSc1nnc(NC(=O)c2ccc3ccccc3c2)s1 | -9.56
8. COc1ccc(N(C(=O)c2cccnc2)S(=O)(=O)c2ccc3c(c2)n(C)c(=O)n3C)cc1 | -3.4
9. COC(=O)c1ccc(CN2C(=O)C(Cc3ccccc3)ON=C2c2ncccc2C)o1 (stereo unspecified) | -4
10. N#CCc1c(C#N)c(N)nc(N2CCCC2)c1C#N | -5.04
11. C=CCNC(=O)CSc1nc2sc(C)c(C)c2c(=O)[nH]1 | -2.42

====

Molecular target: Phosphatidylinositol 5-phosphate 4-kinase type-2 alpha (Homo sapiens) (UniProt P48426)
Experiment: qHTS for Inhibitors of phosphatidylinositol 5-phosphate 4-kinase (PI5P4K); also: value at the top dose of about 77 µM; % is scaled to controls: 0 for no effect and ±100 for the full control effect
Details: PI5P4Kalpha enzyme, ADP-Glo luminescence, 60 min; stronger effect = lower value
The whole screen tested about 330,000 compounds, of which about 4,100 (1.2%) were called active. About 2% were inconclusive and are not listed. Many of the other results were omitted from the sample, so actives are more common in it than they were.
Readout Label: max response (%)

1) Cc1ccccc1Cn1c(C)c(C(=O)NCc2cccc(C(F)(F)F)c2)sc1=O | 6.94
2) CC(Sc1nnnn1C1CCCCC1)C(=O)O (centres undefined) | -91
3) CC1=C/C(=N\OS(=O)(=O)c2ccccc2)C=CC1=O | -78.8
4) CCOc1ccc2[nH]c(=S)sc2c1 | -59.6
5) COc1cccc2sc(N(CCCN(C)C)C(=O)C(c3ccccc3)c3ccccc3)nc12 | 12.8
6) O=C(NCC(=O)N1CCCC(C(F)(F)F)C1)c1ccccc1F (centres undefined) | 3.2
7) CCC(C(=O)NC(C)(C)C)n1c(-c2ccccc2)nc2ccccc21 (centres undefined) | 1.82
8) Cc1ccc(Cc2c(-c3ccc(Cl)cc3)nc3c4ccccc4ccn23)cc1 | 19.7
9) CC(=O)c1ccc(Nc2nc(C(N)c3ccccc3Cl)cs2)cc1 (centres undefined) | 1.57
10) Fc1cccc(Cc2c(-c3ccc(Cl)cc3)nc3ccc(Cl)cn23)c1 | 1.89
11) CCCc1nc2c3ccccc3ccn2c1Cc1ccccc1C(F)(F)F | -0.571
12) O=c1[nH]c2ccccc2s1 | 5.23
13) C=CCN1C=C2C(=O)C(C)(OC(=O)CCc3ccccc3)C(=O)C=C2C=C1c1ccc(C#N)cc1 (centres undefined) | -25.6
14) CNc1cc(-c2c(OC)cccc2OC)ncn1 | 3.83
15) COc1ccc2[nH]c(=S)cc(C)c2c1 | -9.52
16) S=c1[nH]nc(-c2cc(-c3ccccc3)n[nH]2)n1/N=C/c1c2ccccc2cc2ccccc12 | -58.9
17) COc1ccc(CNC(=O)c2ccc(-c3cccnc3)c3ccoc23)cc1OC | 0.62
18) O=C1Nc2cc(C(=O)N3CCC(N4CCCCC4)CC3)ccc2S/C1=C\c1ccccc1 | -1.98
19) CCN1CCCC1CNC(=O)c1ccc2c(c1)NC(=O)/C(=C\c1ccccc1F)S2 (centres undefined) | -0.909
20) Cn1nnnc1SCC(=O)Nc1nc2ccccc2s1 | 5.87
21) CCN1CCN(CCNC(=O)c2ccc3c(c2)NC(=O)/C(=C\c2cccc(Cl)c2)S3)CC1 | -64.1
22) O=C(Nc1ccccc1)C1CCN(C(=O)c2ccc(Br)cc2)CC1 | -5.42
23) Cc1ccc(C2=N/C(=C\c3ccc(OS(=O)(=O)c4ccc(C)cc4)cc3)C(=O)O2)cc1 | -1.18
24) CC(C)c1cc(Cn2c3ccccc3c(=O)n2C(C)Cn2cc(C3CC3)nn2)on1 (centres undefined) | -4.48
25) C=CC(=O)Nc1ccc(Nc2ccnc(Nc3ccc(N4CCN(C)CC4)cc3)n2)cc1 | -68.9
26) CN1CCN(C(=O)c2ccc(-c3cc4nc(NCc5cccnc5)n(C)c(=O)c4s3)cc2)CC1 | 2.18
27) CCCCNC(=O)C[C@@H]1C[C@@]2(C(=O)OCC)CCC=C2N(Cc2ccco2)C1=O | -0.539
28) CN1OC[C@@H]2CN(C(=O)c3cccc4ccccc34)[C@H](c3ccc(N4CCCCC4)cc3)C[C@@H]21 | -0.774
29) O=C1CCCC(O)=C1N=Nc1ccc2ncsc2c1 | -66.1
30) FC(F)(F)C1CCCN(c2nsc3ccccc23)C1 (centres undefined) | -91.2
31) Fc1ccccc1/C=N/n1c(-c2cccnc2)n[nH]c1=S | 5.87
32) COc1ccc(CNC(=O)C2CCN(C(=O)c3ccccc3)CC2)cc1 | 6.89
33) CCOc1ccc2nc(N(CCN(C)C)C(=O)c3ccc4ccccc4c3)sc2c1 | -3.3
34) COc1cccc2sc(NNC(=O)c3nc4ccccc4s3)nc12 | -61.5
35) CC1(OC(=O)C2CCCC2)C(=O)C=C2C=C(c3ccc(C#N)cc3)OC=C2C1=O (centres undefined) | -76.4
36) Cc1cccnc1C(NC(=O)C1CCN(Cc2ccc(Cl)c(Cl)c2)CC1)c1ccc(Cl)cc1 (centres undefined) | 13.1
37) CN1CCN(c2ccc(NC(=O)c3cc(Cl)c4c(c3)OCCO4)cc2)CC1 | 3.06
38) COc1ccccc1CNc1nc(Nc2ccccc2Cl)c2sccc2n1 | -3.83
39) COC(=O)[C@]12CCCCC=C1N(Cc1ccc3c(c1)OCO3)C(=O)[C@H](CC(=O)NCc1cccs1)C2 | 1.05
40) CC(=O)N1C[C@@H](CO)[C@@H](N(C)C(=O)c2ccco2)C[C@H]1c1ccccc1 | -3.57
41) Nc1nnc(SCC(=O)Nc2ccc3nc(SCC(=O)Nc4ccccc4)sc3c2)s1 | -22.9
42) CC(Sc1nnnn1C)C(=O)NC(=O)NC1CCCCC1 (centres undefined) | -0.0816
43) O=C(CSc1nnnn1C1CCCC1)N1CCCCC1 | 1.79
44) CCc1nc2c(OCc3ccc(Cl)cc3Cl)cccn2c1N(C)C(=O)C(C)C | 2.81

====

Target: Phosphatidylinositol 5-phosphate 4-kinase type-2 alpha (Homo sapiens)
Experiment: qHTS for Inhibitors of phosphatidylinositol 5-phosphate 4-kinase (PI5P4K); also: value at the top dose of about 77 µM; % is scaled to controls: 0 for no effect and ±100 for the full control effect
Details: PI5P4Kalpha enzyme, ADP-Glo luminescence, 60 min
Source text: In addition to finding PI5P, we discovered the type II phosphatidylinositol 5-phosphate 4-kinase (PI5P4K) family (alpha, beta, gamma isoforms) that catalyze the conversion of PI5P to PI(4,5)P2. Alternatively, PI(4,5)P2 can also be synthesized through phosphatidylinositol-4-phosphate (PI4P) by the type I phosphatidylinositol 4-phosphate 5-kinases (PI4P5K). […]
Hit rate of the full screen: of about 330,000 compounds, about 4,100 (1.2%) were called active. Roughly 2% stayed inconclusive and do not appear here. Rule for the calls: active = max response of -50% or lower; inconclusive = between -30% and -50%; inactive = -30% or higher. Many of the other results were omitted from the sample, so actives are more common in it than they were.
Classes used: active, inactive

1) O=C(/C=C(O)/C=C/c1ccc(O)cc1)/C=C/c1ccc(O)cc1 | active
2) Cc1cc(Br)ccc1NC(=O)CCCOc1cc(=O)n(C)c2ccccc12 | inactive
3) COc1ccc(NC(=O)C2Cc3c(-c4ccc5c(c4)OCO5)ccnc3O2)cn1 (stereo not given) | inactive
4) O=C(/C=C/c1ccc(F)cc1)NCCNC(=O)/C=C/c1ccc(F)cc1 | inactive
5) CC(=O)Nc1cc(-c2ccc(N3CCN(C)CC3)cc2)cn2c(-c3ccc(F)cc3)cnc12 | inactive
6) O=C(/C=C/c1ccc2c(c1)OCCO2)c1ccc(O)cc1 | inactive
7) COc1ccc(S(=O)(=O)N(C)C[C@H]2OCc3cnnn3CCCC(=O)N([C@H](C)CO)C[C@H]2C)cc1 | inactive
8) Cc1ccccc1-c1csc(C(O)c2cccc(Cl)c2)n1 (stereo not given) | inactive
9) CCc1cccc(CC)c1N1C(=O)CC(Sc2ccccc2N)C1=O (stereo not given) | inactive
10) CC(C)NC(=O)N1Cc2cc(C(=O)NCC(F)(F)F)nc(-c3cccc(-c4cc5ccccc5o4)c3)c2[C@@H]1CCO | inactive
